Target: T1, murine IL-11 (mouse, UniProt P47873 22-199)
T1 construct: Invigate, e.g. lot #C210819-09; biotinylated where coated in the ELISA; also called mIL-11; mIL11
T1 sequence: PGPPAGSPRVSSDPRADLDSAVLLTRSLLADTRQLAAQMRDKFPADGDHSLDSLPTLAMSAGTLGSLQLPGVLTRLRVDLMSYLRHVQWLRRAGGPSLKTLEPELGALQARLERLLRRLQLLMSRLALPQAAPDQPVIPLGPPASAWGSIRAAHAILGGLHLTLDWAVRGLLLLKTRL
Experiment: SPR, antibody captured, IL-11 as analyte
Quantity Measured: Kd (nM)
One number for each entry, in nM.

Reference set (5 entries):
{"Binder": "TPP-29394 (antibody, human IgG1, V domains shown) VH: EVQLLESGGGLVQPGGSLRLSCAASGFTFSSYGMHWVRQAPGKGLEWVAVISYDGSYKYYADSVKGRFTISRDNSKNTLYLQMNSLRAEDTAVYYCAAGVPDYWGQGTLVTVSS VL: QSVLTQPPSASGTPGQRVTISCSGSSSNIGSDYDVHWYQQLPGTAPKLLIYSNNERPSGVPDRFSGSKSGTSASLAISGLRSEDEADYYCAAWDFSLYGPVFGGGTKLTVL", "Kd / nM": 0.65}
{"Binder": "TPP-29392 (antibody, human IgG1, V domains shown) VH: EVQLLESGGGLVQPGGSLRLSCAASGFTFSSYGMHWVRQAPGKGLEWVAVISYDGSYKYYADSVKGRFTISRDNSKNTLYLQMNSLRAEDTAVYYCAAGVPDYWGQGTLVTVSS VL: QSVLTQPPSASGTPGQRVTISCSGSSSNIWSDYDVHWYQQLPGTAPKLLIYSNEERPSGVPDRFSGSKSGTSASLAISGLRSEDEADYYCAAWDSSLSGPVFGGGTKLTVL", "Kd / nM": 1.1}
{"Binder": "TPP-29391 (antibody, human IgG1, V domains shown) VH: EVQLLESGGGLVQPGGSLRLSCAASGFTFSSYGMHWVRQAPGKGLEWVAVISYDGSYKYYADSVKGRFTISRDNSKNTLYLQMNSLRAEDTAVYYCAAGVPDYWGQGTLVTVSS VL: QSVLTQPPSASGTPGQRVTISCSGSSSNIGSDYDVHWYQQLPGTAPKLLIYSNNERPSGVPDRFSGSKSGTSASLAISGLRSEDEADYYCAAWDSSLYGPVFGGGTKLTVL", "Kd / nM": 0.17}
{"Binder": "TPP-29401 (antibody, human IgG1, V domains shown) VH: EVQLLESGGGLVQPGGSLRLSCAASGFTFSSYGGHWVRQAPGKGLEWVAVISYDGSYKYYADSVKGRFTISRDNSKNTLYLQMNSLRAEDTAVYYCAAGVPDYWGQGTLVTVSS VL: QSVLTQPPSASGTPGQRVTISCSGSSSNIGSYYDVHWYQQLPGTAPKLLIYSNEERPSGVPDRFSGSKSGTSASLAISGLRSEDEADYYCAAWDDSLSGPVFGGGTKLTVL", "Kd / nM": 0.11}
{"Binder": "TPP-29397 (antibody, human IgG1, V domains shown) VH: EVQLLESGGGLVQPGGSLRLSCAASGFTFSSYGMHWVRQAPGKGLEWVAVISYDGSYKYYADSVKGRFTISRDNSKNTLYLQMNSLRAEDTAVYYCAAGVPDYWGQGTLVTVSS VL: QSVLTQPPSASGTPGQRVTISCSGSSSNIWSGYDVHWYQQLPGTAPKLLIYSNEERPSGVPDRFSGSKSGTSASLAISGLRSEDEADYYCAAWDSSLYGPVFGGGTKLTVL", "Kd / nM": 0.11}

# input for lookup
query: Fill in the blank: the reported Kd of TPP-29383 (antibody, human IgG1, V domains shown) VH: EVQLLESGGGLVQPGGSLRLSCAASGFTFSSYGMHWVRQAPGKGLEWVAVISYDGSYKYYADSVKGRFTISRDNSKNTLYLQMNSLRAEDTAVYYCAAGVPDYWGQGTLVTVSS VL: QSVLTQPPSASGTPGQRVTISCSGSSSNIGSDLDVHWYQQLPGTAPKLLIYSNEERPSGVPDRFSGSKSGTSASLAISGLRSEDEADYYCAAWDPSLYGPVFGGGTKLTVL is ____.
result: 0.62
